Parameter Hypothermic effect: see the listing below.
- Test system: Mus musculus
- procedure.text: Evaluation of hypothermia (after 1h) resulting from iv administration of compound at dose 10 mg/kg
- Format: functional
parameter: Hypothermic effect

                                   compound           parameter  reported_measurement
0  CCCCCc1cc(O)c2c(c1)OC(C)(C)[C@@H]1CC=C(C)CC21 (some centres undefined)  Hypothermic effect                     1
1  CCCCCc1cc(O)c2c(c1)OC(C)(C)[C@@H]1CC=C(Cc3ccccc3)CC21 (some centres undefined)  Hypothermic effect                   1.3
2  CCCCCc1cc(O)c2c(c1)OC(C)(C)[C@@H]1CC=C(CCCC)CC21 (some centres undefined)  Hypothermic effect                   0.3
3  CCCCCc1cc(O)c2c(c1)OC(C)(C)[C@@H]1CC=C(C(O)CC)CC21 (some centres undefined)  Hypothermic effect                   0.4
